Catalogue of pIC50 values
target_under_test: CDK4/CycD (Homo sapiens (Human))
Sequence (P11802 whole entry): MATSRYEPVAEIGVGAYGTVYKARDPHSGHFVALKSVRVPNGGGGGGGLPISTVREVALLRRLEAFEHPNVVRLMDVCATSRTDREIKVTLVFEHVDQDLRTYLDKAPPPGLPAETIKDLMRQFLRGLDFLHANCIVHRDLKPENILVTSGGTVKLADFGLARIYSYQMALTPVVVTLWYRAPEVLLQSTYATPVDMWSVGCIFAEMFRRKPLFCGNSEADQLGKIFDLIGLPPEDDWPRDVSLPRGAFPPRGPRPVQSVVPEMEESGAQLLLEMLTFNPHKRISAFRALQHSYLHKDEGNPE
Sequence (P24385 whole entry partner): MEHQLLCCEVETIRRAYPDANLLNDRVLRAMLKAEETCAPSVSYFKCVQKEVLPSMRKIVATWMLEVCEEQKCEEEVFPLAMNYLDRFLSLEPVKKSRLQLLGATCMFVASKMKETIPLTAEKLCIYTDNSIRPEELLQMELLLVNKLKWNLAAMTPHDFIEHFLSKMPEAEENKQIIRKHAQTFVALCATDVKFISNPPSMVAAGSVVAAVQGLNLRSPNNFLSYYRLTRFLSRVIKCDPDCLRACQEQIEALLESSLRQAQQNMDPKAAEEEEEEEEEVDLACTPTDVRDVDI
measurement_notes: CDK4/CycD kinase assay (Caliper microfluidic)
condition_notes: at Km for ATP
Description: Selected compounds disclosed herein were tested in CDK4/cyclinD1, CDK2/CycA and CDK2/cyclinE kinase assays by Nanosyn (Santa Clara, Calif.) to determine their inhibitory effect on these CDKs. The assays were performed using microfluidic kinase detection technology (Caliper Assay Platform). The compounds were tested in 12-point dose-response format in singlicate at Km for ATP. […]
pIC50: −log10 of the molar value.
value_kind: pIC50

CN1CCN(c2ccc(Nc3nccc(N4C(c5ccccc5)=NCC45CCCCC5)n3)nc2)CC1 :: < 4.00
CN1CCN(c2ccc(Nc3nccc(N4C(c5ccoc5)=NCC45CCCCC5)n3)nc2)CC1 :: < 4.00
CN1CCN(c2ccc(Nc3nccc(N4C(c5ccsc5)=NCC45CCCCC5)n3)nc2)CC1 :: < 4.00
